Experiment: Compound solubility in water
Details: water, Compound Solubility in Water
Experimental Readout: solubility (µg/mL)

COc1cc(NC(=O)c2ccn3c(C)cc(C)nc23)ccc1-c1cocn1    0.2
COc1cc(NC(=O)c2ccn3c(C)cc(C)nc23)ccc1-c1cnco1    0.1
CCCCO[C@H]1CC[C@H](NC(=O)c2ccn3c(C)cc(C)nc23)CC1    18.1

(a) [2H]c1c(C([2H])([2H])[2H])nc2c(C(=O)Nc3ccc(-c4cocn4)cc3)cc([2H])n2c1C([2H])([2H])[2H]
(b) Cc1cc(C)n2ccc(C(=O)Nc3ccc(-c4ccco4)nc3)c2n1
(c) Cc1cc(C)n2ccc(C(=O)NC3CC4CCC(C3)O4)c2n1 (stereo not drawn)
(d) COC1CCc2ccc(NC(=O)c3ccn4c(C)cc(C)nc34)cc21 (stereo not drawn)
List the 4 entries from lowest solubility to highest solubility value. # format: label list in the order the request specifies
a, b, d, c
(a: 0.07 µg/mL, b: 0.3 µg/mL, d: 2.6 µg/mL, c: 29.3 µg/mL)

----------
Biological target: glucocerebrosidase (Gcase) (Homo sapiens, UniProt P04062)
Construct: micellar solution containing 10 nM GCase and 100 nM saposin C
Sequence (P04062 40-536): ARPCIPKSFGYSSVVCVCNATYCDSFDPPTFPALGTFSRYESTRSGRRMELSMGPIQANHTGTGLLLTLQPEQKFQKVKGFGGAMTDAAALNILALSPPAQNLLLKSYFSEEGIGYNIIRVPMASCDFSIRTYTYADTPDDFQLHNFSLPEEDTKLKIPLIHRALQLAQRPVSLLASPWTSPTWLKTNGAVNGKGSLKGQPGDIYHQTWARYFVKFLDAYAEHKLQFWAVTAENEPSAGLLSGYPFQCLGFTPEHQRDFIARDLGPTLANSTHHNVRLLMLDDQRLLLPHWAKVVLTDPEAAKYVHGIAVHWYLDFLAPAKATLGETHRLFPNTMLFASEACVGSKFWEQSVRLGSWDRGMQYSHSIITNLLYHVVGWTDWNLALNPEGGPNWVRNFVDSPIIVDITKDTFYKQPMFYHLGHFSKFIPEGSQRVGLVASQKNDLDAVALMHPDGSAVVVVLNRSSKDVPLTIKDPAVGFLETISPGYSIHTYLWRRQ
Experiment: Glucocerebrosidase (Gcase) activation assay, 4-methylumbelliferyl-beta-D-glucopyranoside substrate, fluorescence readout
Type: biochemical
Conditions: test compound at 0.1 μM; read-out: Percent Gcase Activation, 0.1 μM Test Compound
Experimental Readout: activation at 0.1 µM

COCCOc1ccc2c(c1)C(NC(=O)c1ccn3c(C)cc(C)nc13)CC2 (stereo not drawn) [III-103]    10 to 20%
CCCCO[C@H]1C[C@H](NC(=O)c2ccn3c(C)cc(C)nc23)C1 [III-198]    10 to 20%
Cc1cc(C)n2ccc(C(=O)NC3CCC4(CCCO4)c4ccccc43)c2n1 (stereo not drawn) [III-143]    > 20%
COCc1cc(C(F)F)n2ccc(C(=O)NC3(C)CCOc4cc(F)c(F)cc43)c2n1 (stereo not drawn) [III-58]    10 to 20%
CCCCCO[C@H]1CC[C@H](NC(=O)c2ccn3c(C)ccnc23)CC1 [III-260]    10 to 20%
CO[C@H]1CC[C@H](C(C)(C)NC(=O)c2ccn3c(C)cc(Cl)nc23)CC1 [III-75]    10 to 20%
Cc1cc(C)n2ccc(C(=O)NC3(C)CCOc4c(F)cccc43)c2n1 (stereo not drawn) [III-133]    > 20%
Cc1cc(C(F)(F)F)nc2c(C(=O)NC3CCCc4ccccc43)ccn12 (stereo not drawn) [III-251]    > 20%

// below: activation at 0.1 µM requested for another molecule
# value of activation at 0.1 µM, glucocerebrosidase (Gcase) (Homo sapiens, UniProt P04062), item COCc1cc(C(F)F)nc2c(C(=O)NC3(C)CCOc4cc(F)c(F)cc43)ccn12 (stereo not drawn) [III-57] = 10 to 20%

----------
Biological target: glucocerebrosidase (Gcase) (Homo sapiens, UniProt P04062)
Construct: micellar solution containing 10 nM GCase and 100 nM saposin C
Experiment: Glucocerebrosidase (Gcase) activation assay, 4-methylumbelliferyl-beta-D-glucopyranoside substrate, fluorescence readout
Type: biochemical
Details: test compound at 1.0 μM; read-out: Percent Gcase Activation, 1 μM Test Compound
Experimental Readout: activation at 1 µM

Cc1cc(C)n2ccc(C(=O)NCC3CCC(F)(F)CC3)c2n1    30 to 60%
Cc1cc(Br)n2ccc(C(=O)Nc3ccc(-c4cocn4)cc3)c2n1    30 to 60%
Cc1cc(Br)nc2c(C(=O)Nc3ccc(-c4cocn4)cc3)ccn12    > 60%
Cc1cc(C)n2ccc(C(=O)NC3CCC4(CCCO4)CC3)c2n1 (stereo not drawn)    < 30%
[2H]c1c(C([2H])([2H])[2H])nc2c(C(=O)NC3(C)CCOc4ccccc43)cc([2H])n2c1C([2H])([2H])[2H] (stereo not drawn)    > 60%

# value of activation at 1 µM, glucocerebrosidase (Gcase) (Homo sapiens, UniProt P04062), item Cc1cc(C)n2ccc(C(=O)NC3CCCc4ccc(S(C)(=O)=O)cc43)c2n1 (stereo not drawn) = < 30%

# value of activation at 1 µM, glucocerebrosidase (Gcase) (Homo sapiens, UniProt P04062), item CCCCO[C@H]1CC[C@H](NC(=O)c2ccn3c(C4CC4)cc(C)nc23)CC1 = > 60%

# value of activation at 1 µM, glucocerebrosidase (Gcase) (Homo sapiens, UniProt P04062), item Cc1cc(C(F)(F)F)nc2c(C(=O)NC3CCCc4ccccc43)ccn12 (stereo not drawn) = > 60%

# value of activation at 1 µM, glucocerebrosidase (Gcase) (Homo sapiens, UniProt P04062), item Cc1cc(C)n2ccc(C(=O)Nc3ccc4c(c3)C(Oc3nnc(C)o3)CC4)c2n1 (stereo not drawn) = 30 to 60%

# value of activation at 1 µM, glucocerebrosidase (Gcase) (Homo sapiens, UniProt P04062), item Cc1cc(C)n2ccc(C(=O)NC3CCCCc4ccccc43)c2n1 (stereo not drawn) = > 60%

# value of activation at 1 µM, glucocerebrosidase (Gcase) (Homo sapiens, UniProt P04062), item Cc1cc(C)n2ccc(C(=O)Nc3ccc(Cl)c(-c4cnco4)c3)c2n1 = > 60%

# value of activation at 1 µM, glucocerebrosidase (Gcase) (Homo sapiens, UniProt P04062), item CCCCO[C@H]1CC[C@H](NC(=O)c2ccn3c(C(F)F)cc(C)nc23)CC1 = > 60%

# value of activation at 1 µM, glucocerebrosidase (Gcase) (Homo sapiens, UniProt P04062), item Cc1cc(C)n2ccc(C(=O)NC3CCC4(CCOCC4)CC3)c2n1 = < 30%
